Biological target: the molecule itself
Experiment: AUC
// % peak integration lookup, one value per entry
measured-metric: % peak integration (%)

[[record]]
protein = "PrfA S71L/G145S (natural protein, Listeria monocytogenes) NAQAEEFKKYLETNGIKPKQFHKKELIFNQWDPQEYCIFLYDGITKLTSISENGTIMNLQYYKGAFVIMLGFIDTETSVGYYNLEVISEQATAYVIKINELKELLSKNLTHFFYVFQTLQKQVSYSLAKFNDFSINGKLGSICSQLLILTYVYGKETPDGIKITLDNLTMQELGYSSGIAHSSAVSRIISKLKQEKVIVYKNSCFYVQNLDYLKRYAPKLDEWFYLACPATWGKLN"
numeric_readout = 72.9

[[record]]
protein = "PrfA V80L (natural protein, Listeria monocytogenes) NAQAEEFKKYLETNGIKPKQFHKKELIFNQWDPQEYCIFLYDGITKLTSISENGTIMNLQYYKGAFVIMSGFIDTETSLGYYNLEVISEQATAYVIKINELKELLSKNLTHFFYVFQTLQKQVSYSLAKFNDFSINGKLGSICGQLLILTYVYGKETPDGIKITLDNLTMQELGYSSGIAHSSAVSRIISKLKQEKVIVYKNSCFYVQNLDYLKRYAPKLDEWFYLACPATWGKLN"
numeric_readout = 92.6

[[record]]
protein = "PrfA E36Q (natural protein, Listeria monocytogenes) NAQAEEFKKYLETNGIKPKQFHKKELIFNQWDPQQYCIFLYDGITKLTSISENGTIMNLQYYKGAFVIMSGFIDTETSVGYYNLEVISEQATAYVIKINELKELLSKNLTHFFYVFQTLQKQVSYSLAKFNDFSINGKLGSICGQLLILTYVYGKETPDGIKITLDNLTMQELGYSSGIAHSSAVSRIISKLKQEKVIVYKNSCFYVQNLDYLKRYAPKLDEWFYLACPATWGKLN"
numeric_readout = 85.3

[[record]]
protein = "PrfA Y63W/G145S (natural protein, Listeria monocytogenes) NAQAEEFKKYLETNGIKPKQFHKKELIFNQWDPQEYCIFLYDGITKLTSISENGTIMNLQYWKGAFVIMSGFIDTETSVGYYNLEVISEQATAYVIKINELKELLSKNLTHFFYVFQTLQKQVSYSLAKFNDFSINGKLGSICSQLLILTYVYGKETPDGIKITLDNLTMQELGYSSGIAHSSAVSRIISKLKQEKVIVYKNSCFYVQNLDYLKRYAPKLDEWFYLACPATWGKLN"
numeric_readout = 83

[[record]]
protein = "PrfA^I69W (natural protein, Listeria monocytogenes) NAQAEEFKKYLETNGIKPKQFHKKELIFNQWDPQEYCIFLYDGITKLTSISENGTIMNLQYYKGAFVWMSGFIDTETSVGYYNLEVISEQATAYVIKINELKELLSKNLTHFFYVFQTLQKQVSYSLAKFNDFSINGKLGSICGQLLILTYVYGKETPDGIKITLDNLTMQELGYSSGIAHSSAVSRIISKLKQEKVIVYKNSCFYVQNLDYLKRYAPKLDEWFYLACPATWGKLN"
numeric_readout = 92.9

